Hello, the source for this data is patent US20160122426A1, in case you need it.

Here, each record is paired with measured fold affinity over mother clone F data.
biological target: T1, human VEGF (human, UniProt P15692-4 27-191); assay: ELISA and BIAcore
T1 construct: Bought recombinant protein; also called hVEGF; human VEGF-A
T1 sequence (P15692 other isoform, or with tags, fused parts or gaps limits assumed): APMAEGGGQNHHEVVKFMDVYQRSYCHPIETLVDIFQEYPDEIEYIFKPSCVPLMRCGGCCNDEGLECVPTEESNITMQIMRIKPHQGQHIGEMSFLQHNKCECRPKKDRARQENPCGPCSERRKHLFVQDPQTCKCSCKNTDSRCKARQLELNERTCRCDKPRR

{"columns": ["Binder", "fold affinity over mother clone F"],
 "data": [
  ["HF2-4 (antibody, V domains shown, also called HF-4) VH: EVQLVESGGGLVQPGGSLRLSCAASGWSMRSHGMQWVRQAPGKGLEYVAGISSDGSWRRHSAAVEGRFTISRDDSKNTAYLQMNSLRAEDTAVYYCARDFSTGYGADSIDAWGQGTLVTVSS VL: DIQMTQSPSSLSASVGDRVTITCSGGSDSAYGYGWYQQKPGKAPKTLIYWDDKRPSGVPSRFSGSRSGTDFTLTISSLQPEDFATYYCGAWEYSGGVGIFGQGTKVEIK", "≥ 10 times"],
  ["HF2-7 (antibody, V domains shown) VH: EVQLVESGGGLVQPGGSLRLSCAASQFWIRSHGMQWVRQAPGKGLEYVAGISSDGSWFRVAAAVEGRFTISRDDSKNTAYLQMNSLRAEDTAVYYCARDFSTGYGADSIDAWGQGTLVTVSS VL: DIQMTQSPSSLSASVGDRVTITCSGGSMEPLGYGWYQQKPGKAPKTLIYWDDKRPSGVPSRFSGSRSGTDFTLTISSLQPEDFATYYCGAWEYSGGVGIFGQGTKVEIK", "≥ 10 times"]
]}
